As shown below, each of these molecules has a reported Ki value.
Test System: human V1a receptor (Homo sapiens)
Construct: expressed in transfected cells; host or cells: HEK293 cells, transiently transfected; membrane preparation
Sequence (P37288 whole entry): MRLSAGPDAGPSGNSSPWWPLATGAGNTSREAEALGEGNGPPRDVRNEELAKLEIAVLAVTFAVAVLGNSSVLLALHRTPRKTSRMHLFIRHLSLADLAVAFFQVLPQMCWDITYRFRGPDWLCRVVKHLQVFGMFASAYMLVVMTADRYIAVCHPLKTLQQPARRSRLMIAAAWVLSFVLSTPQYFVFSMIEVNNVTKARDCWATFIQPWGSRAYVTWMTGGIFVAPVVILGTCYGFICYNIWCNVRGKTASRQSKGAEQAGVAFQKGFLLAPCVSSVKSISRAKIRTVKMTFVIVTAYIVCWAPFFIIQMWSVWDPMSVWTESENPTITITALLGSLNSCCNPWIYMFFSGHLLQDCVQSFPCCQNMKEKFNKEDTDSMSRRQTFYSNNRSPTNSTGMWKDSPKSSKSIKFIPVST
Test Protocol: human V1a receptor binding (3H-Vasopressin SPA, HEK293 membranes)
Condition Details: displacement of 3H-Vasopressin; membranes of HEK293 cells transiently transfected with human V1a receptor; Ki from IC50 by Cheng-Prussoff equation
Description: The human V1a receptor was cloned by RT-PCR from total human liver RNA. The coding sequence was subcloned in an expression vector after sequencing to confirm the identity of the amplified sequence. […] Cell membranes were prepared from HEK293 cells transiently transfected with the expression vector and grown in 20 liter fermenters with the following protocol. […]
Entry rule: numbers only, all in nM.

Some molecules with recorded Ki:
Molecule: CN1CN(c2ccccc2)C2(CCN(C(=O)c3cn(Cc4ccccc4)c4cc(Cl)ccc34)CC2)C1=O [Example 11]
Unit Label: nM
Ki: 45

Molecule: Cc1c(C(=O)N2CCC3(CC2)C(=O)NCN3c2ccccc2)c2ccccc2n1Cc1ccccc1 [Example 2]
Unit Label: nM
Ki: 367

Molecule: CN(C)CCNC(=O)Cn1cc(C(=O)N2CCC3(CC2)C(=O)N(C)CN3c2ccccc2)c2ccc(Cl)cc21 [Example 14]
Unit Label: nM
Ki: 184

Molecule: CNC(=O)Cn1cc(C(=O)N2CCC3(CC2)C(=O)N(C)CN3c2ccccc2)c2ccc(Cl)cc21 [Example 8]
Unit Label: nM
Ki: 37

Molecule: Cc1c(C(=O)N2CCC3(CC2)OCCO3)c2ccccc2n1Cc1ccccc1 [Example 15]
Unit Label: nM
Ki: 424

Molecule: CN(C)CCn1cc(C(=O)N2CCC3(CC2)C(=O)N(C)CN3c2ccccc2)c2ccc(Cl)cc21 [Example 7]
Unit Label: nM
Ki: 156

According to the records, this molecule O=C(c1c[nH]c2cc(Cl)ccc12)N1CCC2(CC1)OCCO2 [Example 16] displays Ki of 284

Notebook: Cc1c(C(=O)N2CCC3(CC2)C(=O)N(C)CN3c2ccccc2)c2ccccc2n1Cc1ccccc1 [Example 1] , Ki read as 368

Ki measured on CN1CN(c2ccccc2)C2(CCN(C(=O)c3cn(Cc4cccc(Cl)c4F)c4cc(Cl)ccc34)CC2)C1=O [Example 13] = 73
